Target: Serine/threonine-protein kinase PLK1 (Homo sapiens)
Assay: PLK1 kinase inhibitor potency, dose response, biochemical, TR-FRET, IC50 (AID 785)
Details: recombinant human Plk1, fluorescence polarization phosphopeptide binding, 3 h
Property Name: IC50

Please review the entries below; each comes with its answer.
Molecule	Assayed System	IC50
COC(=O)c1c(-c2ccc(Br)cc2)noc1N	Serine/threonine-protein kinase PLK1 (Homo sapiens)	7.93 µM
Cc1oc2ncnc(N)c2c1C	Serine/threonine-protein kinase PLK1 (Homo sapiens)	3.75 µM
O=C(Nc1cccnc1)c1cnn2cccnc12	Serine/threonine-protein kinase PLK1 (Homo sapiens)	4.07 µM
Nc1ncnc(Nc2cccc(C(F)(F)F)c2)n1	Serine/threonine-protein kinase PLK1 (Homo sapiens)	0.469 µM

Give measured IC50 for every item shown.
1. Nc1ncnc(Nc2ccccc2C(F)(F)F)n1
2. Cc1ncc([N+](=O)[O-])n1CCOC(=O)Nc1ccc(Cl)c(Cl)c1
3. COc1ccccc1Nc1ncnc2nc[nH]c12
4. Cc1c(C(=O)OC(C)C)sc2nc[nH]c(=O)c12

1: 4.84 µM; 2: 0.775 µM; 3: 1.01 µM; 4: 4.01 µM
